# System: VchCAST RNA-guided transposition machinery (E. coli BL21(DE3) host, lacZ target)
# assay_comment: relative integration efficiency (T-RL orientation) vs wild-type transposon end (log2 (normalized fold change)); transposon end mutated: right end (5 bp flank + 75 bp right end); higher = more efficient transposition
Collected relative integration efficiency (log2) values appear next to each entry.
Answer with a bare number; do not write a unit.

ACATTTGTTGATACAACCATATATTGATATCTCCACCCATAAATTGATAATTATCACAACCATATATTGATATCTCCTCTGATCATAGTCAGACCAACATTGCTACGACCCGTATTCGCACCGACAC : -0.13

QUERY: // query relative integration efficiency (log2) value for entry ACATTTGTTGATACAACCATAAAATGATAATTACACCCATAAATTGATAATTATCACACCCATAACGGTCGCGGTAAGAGGATCATAGTCAGACCAACATTGCTACGACCCGTATTCGCACCGACAC
RESULT: -0.752

QUERY: Request the reported relative integration efficiency (log2) associated with ACATTTGTTGATACACCCATAAATTGATAATTACAACCATAAAATGATAATTATCACAACCATAAGTTGATATTTTCTCTGATCATAGTCAGACCAACATTGCTACGACCCGTATTCGCACCGACAC
RESULT: -0.795
